- Test system: MS2 coat protein
- protocol: apparent KD of MS2 coat protein; designed switch direction (-1 OFF switch, 1 ON switch): -1; higher = weaker reporter binding
- condition-details: input ligand: none
quantity-kind: apparent KD of MS2 coat protein
Include the unit after the number when you answer.

A selection of reference data follows.
biopolymer-sequence	apparent KD of MS2 coat protein
CCAUCACAUGAGGAUCACCCAUGUGAGGAUAUGUUUUUGGUGCGUAUAAAGCCUGGGAACAGAAGGUACAGGGA [Eternabot (L2) Solution 50] (Eterna round: R97, puzzle: Exclusion 1)	12.9 nM
UUUCUCUGGGCGUCUUCUUACAUGAGGAUCACCCAUGUUUCGCAGGAUAUGCUAUAGUGUUAGAUGCAGAAGGGCGUUUGUUUU [JR_ExcNG3_Sub079] (Eterna round: R96, puzzle: Exclusion NG 3)	92.5 nM
GGAUCGAGUGUGAGGAUAUGCUGGUCCUUGGAUCAGCAGAAGGCACAUGAGGAUCACCCAUGUGAUACCGAUCC [Eli bmx4 4.67] (Eterna round: R97, puzzle: Brourd's mod of Exclusion 4)	71 nM
UUUAGUUCAGGAUAUGUAGAUAUUAACAUGAGGAUCACCCAUGUAGAUCCUGAAUUGACUACAGAAGGGAGCAUUU [Mod of Brourd 17 - Jieux - Exclusion 5] (Eterna round: R97, puzzle: Exclusion 5)	17.7 nM
UGAAGUAGAGGAUAUACGUGGAAAUAGAUUCAUGUAAAACUACAUGAGGAUCACCCAUGUAGAAGGCUAUAGAU [JR_Ex2_Sub072] (Eterna round: R97, puzzle: Exclusion 2)	49 nM
UUAUUAAUUAAGACUGCAAGAUCACAUGAGGAUCACCCAUGUCAGGAUAUCAGCUCGUUUAGAGCUGAGAAGGGACAAGCAGUC [ExNG3/15-A2] (Eterna round: R96, puzzle: Exclusion NG 3)	94.4 nM

For each entry beneath this line, provide reported apparent KD of MS2 coat protein.
1. AAUAUACAUGUAGGAUAUCUGCACGUUUAGUGCAGAGAAGGACAUGAGGAUCACCCAUGUAAUUAAGAUCAAUUAUUAAAUAUU [ENG1/3-B2] (Eterna round: R96, puzzle: Exclusion NG 1)
2. CGUCGACAUGUAGGAUAUCUGCACGUUUAGUGCAGAGAAGGACAUGAGGAUCACCCAUGUAGAUCACGACGAAUUAAUUUAAUU [ENG1/6-C2] (Eterna round: R96, puzzle: Exclusion NG 1)
3. UUGGUUGUGGUAGGAUAUCCGUUGGAAACUGUUGGAGAAGGACCACAGUCACUGGGUCCUUCUUUGGUGGAGUGGAAGAACCAU [pwkr exNG1 F6.17] (Eterna round: R96, puzzle: Exclusion NG 1)

Response:
1. 63 nM
2. 1540 nM
3. 167 nM
